Where do the numbers come from? From patent US20220324960A1.

Molecular target: T1, Canine IL31 (canine)
T1 chain: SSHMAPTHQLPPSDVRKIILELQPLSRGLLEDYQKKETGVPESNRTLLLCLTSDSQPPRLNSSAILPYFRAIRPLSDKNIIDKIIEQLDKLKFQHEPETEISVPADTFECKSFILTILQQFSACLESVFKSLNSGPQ
Assay: SPR, BIAcore 8K, Protein A sensor chip
Kindly supply the reported koff values for the records listed here.
Numbers only, in s⁻¹.

[[record]]
binder = "cmVH2 + cmVL2 chimeric antibody (antibody, human IgG1, V domains shown, also called analyte 3) VH: EVQLVESGPSLVKPGGSLRLTCSVTGDSITSGYWKWIRKFPGNKLEYMGYISYSGITDYNPSLKSRITISRDTSKNQYYLQLNSVTTEDTATYYCARYPNYGYAMDYWGQGTSVTVSS VL: DIVMTQSPASLSVSLGQRATISCRASESVDTYGRSFMHWYQQKPGQSPKLLIYRASNLESGIPARFGGSGSGTDFTLTIDPVQADDVATYYCYQSYEDPWTFGGGTKLEIK"
measurement_kind = "koff"
result_number = 0.000159

[[record]]
binder = "cmVH1 + cmVL1 chimeric antibody (antibody, human IgG1, V domains shown, also called analyte 2) VH: EVQLVESGPSLVKPGGSLRLTCSVTGDSITSGYWKWIRKFPGNKLEYMGYISYSGITDYNPSLKSRITISRDTSKNQYYLQLNSVTTEDTATYYCARYGNYGYAMDYWGQGTSVTVSS VL: DIVMTQSPASLSVSLGQRATISCRASESVDTYGRSFMHWYQQKPGQSPKLLIYRASNLESGIPARFGGSGSGTDFTLTIDPVQADDVATYYCQQSYEDPWTFGGGTKLEIK"
measurement_kind = "koff"
result_number = 0.000182


API: the following record is the query input.
Bench note: what koff did cmVH2 + cmVL3 chimeric antibody (antibody, human IgG1, V domains shown, also called analyte 4) VH: EVQLVESGPSLVKPGGSLRLTCSVTGDSITSGYWKWIRKFPGNKLEYMGYISYSGITDYNPSLKSRITISRDTSKNQYYLQLNSVTTEDTATYYCARYPNYGYAMDYWGQGTSVTVSS VL: DIVMTQSPASLSVSLGQRATISCRASESVDTYGRSFMHWYQQKPGQSPKLLIYRASNLESGIPARFGGSGSGTDFTLTIDPVQADDVATYYCHQSYEDPWTFGGGTKLEIK show?
0.000162
